These measurements were taken from patent US5872280A.

Target: ^3 H-LTD4 binding to guinea-pig lung membranes (Cavia porcellus)
Construct: from tissue; host or cells: guinea-pig lung membranes
Sequence (Q2NNR5 1-340): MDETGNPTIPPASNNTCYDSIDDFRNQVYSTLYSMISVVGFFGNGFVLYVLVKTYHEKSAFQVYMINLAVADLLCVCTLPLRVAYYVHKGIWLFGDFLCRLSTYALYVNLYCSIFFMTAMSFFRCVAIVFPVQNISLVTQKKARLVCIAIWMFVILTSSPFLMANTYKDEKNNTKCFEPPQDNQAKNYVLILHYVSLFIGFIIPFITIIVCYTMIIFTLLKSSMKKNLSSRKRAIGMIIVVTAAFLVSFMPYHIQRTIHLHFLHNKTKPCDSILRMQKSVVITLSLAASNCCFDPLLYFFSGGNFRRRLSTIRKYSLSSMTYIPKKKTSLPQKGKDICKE
Test: inhibition of ^3 H-LTD4 binding to guinea-pig lung membranes
Conditions: read-out: pKi values for the inhibition of ^3 H-LTD4 binding to guinea-pig lung membranes (converted)
MEASURED_PARAMETER: log10 Ki (log10 of the value in nM)
log10 Ki, nM

Some entries whose results are on file:
STRUCTURE: O=C(O)CCC(=O)Nc1cc(C(=O)O)ccc1OCCCc1ccc(OCCCCOc2ccccc2)cc1
MEASURED_PARAMETER: log10 Ki
RECORDED_NUMBER: 3.00

STRUCTURE: O=C(O)COc1cc(C(=O)O)ccc1NC(=O)CCc1ccc(OCCCCOc2ccccc2)cc1
MEASURED_PARAMETER: log10 Ki
RECORDED_NUMBER: 1.70

STRUCTURE: O=C(O)CCCNC(=O)c1cc(C(=O)O)ccc1OCCCc1cccc(OCCCCOc2ccccc2)c1
MEASURED_PARAMETER: log10 Ki
RECORDED_NUMBER: 4.40

STRUCTURE: CS(=O)(=O)Nc1ccc(OCCCc2ccc(OCCCCOc3ccccc3)cc2)c(C(=O)NCCC(=O)O)c1
MEASURED_PARAMETER: log10 Ki
RECORDED_NUMBER: 2.50

STRUCTURE: O=C(O)CCCNC(=O)c1cc(C(=O)O)ccc1OCCCc1ccc(OCCCCOc2ccccc2)cc1
MEASURED_PARAMETER: log10 Ki
RECORDED_NUMBER: 2.90

Prompt: Item O=C(CCCc1ccc(OCCCCOc2ccccc2)cc1)Nc1cc(C(=O)O)cc(C(=O)O)c1 has what recorded log10 Ki?
Response: 3.20

Prompt: Item O=C(CCCc1ccc(OCCCCOc2ccccc2)cc1)Nc1ccc(C(=O)O)cc1C(=O)O has what recorded log10 Ki?
Response: 2.70

Prompt: Item O=C(O)c1cc(NS(=O)(=O)c2ccccc2)ccc1OCCCc1ccc(OCCCCOc2ccccc2)cc1 has what recorded log10 Ki?
Response: 3.70
